Assay: Headspace above the lemonade, SPME, relative partition parameters
Format: physicochemical
Settings: headspace vs lemonade, 0.05% odorant mixture, 2 h at 35° C., SPME 15 min
metric: Activity (logarithmic partition parameter above lemonade)

# molecule, meas.value
data = [
    ("OCc1ccccc1 [Benzyl alcohol]", "−1.955"),
    ("C=C1C2CCC(C2)C1(C)C (centres unmarked) [Camphene]", 0.465),
    ("C=CC(C)(O)CCC=C(C)C (centres unmarked) [Linalool]", 0.141),
    ("C[C@@H]1CC[C@H]2C(C)(C)[C@H]3C[C@@]12CC[C@@]3(C)O [Cedrol]", "−0.895"),
    ("CCOC(=O)c1ccccc1C(=O)OCC [Diethyl phthalate]", "−1.895"),
]

(a) C=CCc1ccc(O)c(OC)c1 [Eugenol]
(b) CC1=CCC(C(C)C)=CC1 [gamma-Terpinene]
Lookup: Recorded Activity (logarithmic partition parameter above lemonade) values differ for a and b ; which one is higher? Identify your selection by its label.
Found: b

(P) CC(=O)O[C@@H]1C[C@H]2CC[C@]1(C)C2(C)C (racemic) [Isobornyl acetate]
(Q) C=C1CCC2CC1C2(C)C (stereo not drawn) [Beta-Pinene]
Lookup: Among P and Q , which shows a numerically higher Activity (logarithmic partition parameter above lemonade) result? // caller expects the label of the chosen entry
Found: P

(P) C=C(C)[C@H]1CC=C(C)CC1 [Limonene D]
(Q) CC(=O)/C=C/C1=C(C)CCCC1(C)C [Ionone, β, Ionone, beta]
Lookup: Short answer wanted: higher Activity (logarithmic partition parameter above lemonade), P or Q ? # answer = label of selected item
Found: P

----------
Conditions: according to COSMO-RS correlation
metric: Differences (Activity minus Prediction, milkshake)

# compound, meas.value
rows = [
    ("C=C1CCC2CC1C2(C)C (centres unmarked)", "−0.082"),
    ("CC(=O)OC(C)(C)Cc1ccccc1 [DMBCA, dimethylbenzylcarbinyl acetate]", 0.537),
]

(I) CC1=CCC(C(C)C)=CC1
(II) O=C(OCc1ccccc1)c1ccccc1O [Benzyl salicylate]
Lookup: Which of these two has the smaller recorded Differences (Activity minus Prediction, milkshake): I or II ? Identify your selection by its label.
Found: II

----------
Conditions: according to COSMO-RS correlation
metric: Differences (Activity minus Prediction, lemonade)

(I) CC(=O)OC(C)(C)Cc1ccccc1 [DMBCA, dimethylbenzylcarbinyl acetate]
(II) CC1=CCC2CC1C2(C)C (stereo not drawn) [alpha-Pinene]
(III) CC(=O)/C=C/C1=C(C)CCCC1(C)C [Ionone, β, Ionone, beta]
(IV) C=CCc1ccc(O)c(OC)c1 [Eugenol]
(V) CC(C)=CCCC(C)CCO (centres unmarked) [Citronellol]
Lookup: Provide the items ranked by increasing Differences (Activity minus Prediction, lemonade). When ranking, write the labels in the order the request describes.
Found: II, III, V, IV, I

----------
Experiment: Headspace above the milkshake, SPME-GC, relative partition parameters
Format: physicochemical
Details: headspace vs milkshake, 0.2% aroma mixture, 2 h at 35° C., SPME 15 min
Experimental: The procedure is analogous in all examples. The example reflects the taste impression which is perceived via the olfactory epithelium, when enjoying a milkshake. The milkshake is prepared as is generally customary. The mixture of 39 aroma substances is incorporated into the abovementioned milk product (1) in an amount of 0.2%. […] The SPME needle is desorbed in a GC injector, and a gas chromatogram is recorded. […]
metric: Activity (logarithmic partition parameter above a milkshake)

Some solved cases for reference:
# compound, meas.value
rows = [
    ("O=C(OCc1ccccc1)c1ccccc1O [Benzyl salicylate]", "−3.313"),
    ("CC1=CCC(C(C)C)=CC1", 1.064),
    ("CC(=O)OCC=C(C)C [Prenyl acetate]", 0.413),
]

(I) C=C1CCC2CC1C2(C)C (centres unmarked)
(II) CC(C)CCOC(=O)c1ccccc1O [Isoamyl salicylate]
(III) CC(=O)O[C@@H]1C[C@H]2CC[C@]1(C)C2(C)C (racemic) [Isobornyl acetate]
(IV) OCc1ccccc1
Lookup: Ranking field: Activity (logarithmic partition parameter above a milkshake); order: falling. Answer format: list of labels, ordered as asked.
Found: I, III, II, IV
(I: 1.029, III: 0.707, II: −0.528, IV: −0.819)

(1) CC1=CCC2CC1C2(C)C (centres unmarked)
(2) C=CC(C)(O)CCC=C(C)C (centres unmarked)
Lookup: # query: argmin of Activity (logarithmic partition parameter above a milkshake) over 1 and 2 Answer format: the label of the selected item.
Found: 2

(1) CC(=O)/C=C/C1=C(C)CCCC1(C)C
(2) C=CCc1ccc(O)c(OC)c1
(3) CC(=O)OC(C)c1ccccc1 (centres unmarked) [Styrolyl acetate]
(4) C=C(C)[C@H]1CC=C(C)CC1
Lookup: Sort low-to-high on Activity (logarithmic partition parameter above a milkshake), please. Response field: labels, in requested order.
Found: 2, 1, 3, 4
(2: −0.557, 1: −0.154, 3: 0.402, 4: 1.088)
